# PROTOCOL_SUMMARY: Solubility of the compound in water by microplate reader analysis
# Format: physicochemical
Criterion: solubility meeting or surpassing 80 µM. Met: criterion met. Not met: criterion not met.

COMPOUND	ASSIGNED_CLASS
CCC(Cc1ccc(C(=O)NCc2ccccc2C(F)(F)F)cc1)C(=O)O (stereo not given)	criterion not met
CCOC(=O)C(C)Cc1ccc(C(=O)NCc2ccccc2C(F)(F)F)cc1 (stereo not given)	criterion not met
O=C(O)CCc1ccc(C(=O)NCc2ccccc2C(F)(F)F)cc1	criterion met
CCOC(=O)C(CC)Cc1ccc(C(=O)NCc2ccc(Cl)cc2)cc1 (stereo not given)	criterion not met
CCOC(=O)C(CC)Cc1ccc(C(=O)NCc2ccccc2C(F)(F)F)cc1 (stereo not given)	criterion not met
CCOC(=O)C(CC)Cc1ccc(C(=O)NCc2ccccc2OC(F)(F)F)cc1 (stereo not given)	criterion not met
CCC(Cc1ccc(C(=O)NCc2ccccc2Br)cc1)C(=O)O (stereo not given)	criterion met
CCCC(Cc1ccc(C(=O)NCc2ccccc2C(F)(F)F)cc1)C(=O)OCC (stereo not given)	criterion not met
O=C(NCc1ccccc1C(F)(F)F)c1ccc(-c2nnn[nH]2)cc1	criterion met
CCC(Cc1ccc(C(=O)NCc2ccc(OC)cc2C(F)(F)F)cc1)C(=O)O (stereo not given)	criterion met

###

# System: Mus musculus
# PROTOCOL_SUMMARY: Cmax in RjOrl:Swiss (CD-1) mouse plasma assessed as 2-Ethyl-3-[4-(N-((2-trifluoromethyl)benzyl)benzamide)]-propionic Acid at 30 mg/kg, po administered as single dose
# Format: ADME, organism-based
# Parameters: dose 30 mg/kg, route oral
# CONDITION_DETAILS: in vivo
ENDPOINT_LABEL: Cmax (nM)

COMPOUND	UNIT_STRING	RESULT_VALUE
CCOC(=O)C(CC)Cc1ccc(C(=O)NCc2ccccc2C(F)(F)F)cc1 (stereo unspecified)	nM	2000

###

Reported Activity values are given for each entry in this list.
# TARGET: Peroxisome proliferator-activated receptor alpha (Homo sapiens) (UniProt Q07869)
# Sequence (whole entry): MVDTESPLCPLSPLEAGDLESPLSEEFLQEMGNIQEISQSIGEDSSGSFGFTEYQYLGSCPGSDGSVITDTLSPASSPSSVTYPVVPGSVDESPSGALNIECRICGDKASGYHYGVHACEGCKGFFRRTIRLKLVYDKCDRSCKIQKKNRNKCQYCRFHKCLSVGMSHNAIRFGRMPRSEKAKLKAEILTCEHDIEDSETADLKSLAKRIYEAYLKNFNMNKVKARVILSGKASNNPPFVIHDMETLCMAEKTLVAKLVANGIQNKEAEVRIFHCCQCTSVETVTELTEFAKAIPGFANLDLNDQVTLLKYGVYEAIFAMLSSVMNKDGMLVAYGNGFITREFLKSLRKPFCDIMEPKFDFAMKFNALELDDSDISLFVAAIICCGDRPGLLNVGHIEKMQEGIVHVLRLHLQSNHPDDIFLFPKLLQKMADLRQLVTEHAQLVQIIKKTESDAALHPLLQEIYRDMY
# PROTOCOL_SUMMARY: Transactivation of human PPARalpha expressed in African green monkey COS7 cells at 10 uM incubated overnight by dual-glo luciferase reporter assay
# Assay type: cell-based
# CONDITION_DETAILS: COS-7

MOLECULE	TARGET	Activity [%]
CCOC(=O)C(CC)Cc1ccc(C(=O)NCc2ccc(OC)cc2C(F)(F)F)cc1 (stereo not given)	Peroxisome proliferator-activated receptor alpha (Homo sapiens) (UniProt Q07869)	22
CCC(Cc1ccc(C(=O)NCc2ccc(OC)cc2C(F)(F)F)cc1)C(=O)O (stereo not given)	Peroxisome proliferator-activated receptor alpha (Homo sapiens) (UniProt Q07869)	29
CCC(Cc1cccc(C(=O)NCc2ccccc2C(F)(F)F)c1)C(=O)O (stereo not given)	Peroxisome proliferator-activated receptor alpha (Homo sapiens) (UniProt Q07869)	34
CCOC(=O)C(CC)Cc1ccc(C(=O)NCc2ccccc2C)cc1 (stereo not given)	Peroxisome proliferator-activated receptor alpha (Homo sapiens) (UniProt Q07869)	15
CCOC(=O)C(CC)Cc1ccc(C(=O)NCc2ccc(C(F)(F)F)cc2)cc1 (stereo not given)	Peroxisome proliferator-activated receptor alpha (Homo sapiens) (UniProt Q07869)	22
